# binding ratio at 3.7 nM vs NIH3T3 per entry
# system: T1, human CD63 (human, UniProt P08962 2-238)
# T1 construct: stably transfected in NIH3T3/hCD63; The cell line is named under assay; also called hCD63
# T1 sequence: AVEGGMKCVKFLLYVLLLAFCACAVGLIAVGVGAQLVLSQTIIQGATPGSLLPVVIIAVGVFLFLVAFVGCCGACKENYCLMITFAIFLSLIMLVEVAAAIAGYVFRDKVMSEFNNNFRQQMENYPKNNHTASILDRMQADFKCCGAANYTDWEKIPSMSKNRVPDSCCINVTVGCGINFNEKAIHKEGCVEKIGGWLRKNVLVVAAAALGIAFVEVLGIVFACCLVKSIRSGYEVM
# assay info: ECL, U87MG cells
Numbers only; they are read as fold.

INSERT INTO measurements (binder, value) VALUES
  ('H2M12454N (antibody, V domains shown, also called H2bM12454N) VH: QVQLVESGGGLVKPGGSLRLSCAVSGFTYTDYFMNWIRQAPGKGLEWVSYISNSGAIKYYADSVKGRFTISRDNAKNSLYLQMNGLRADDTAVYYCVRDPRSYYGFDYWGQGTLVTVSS VL: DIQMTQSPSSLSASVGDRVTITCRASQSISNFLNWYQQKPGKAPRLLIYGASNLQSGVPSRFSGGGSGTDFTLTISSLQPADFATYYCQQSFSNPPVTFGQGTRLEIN', 132),
  ('H2M12452N (antibody, V domains shown, also called H2aM12452N) VH: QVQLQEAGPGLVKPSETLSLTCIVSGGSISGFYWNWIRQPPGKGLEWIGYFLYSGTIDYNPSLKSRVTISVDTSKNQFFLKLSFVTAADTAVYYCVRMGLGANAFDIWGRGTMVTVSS VL: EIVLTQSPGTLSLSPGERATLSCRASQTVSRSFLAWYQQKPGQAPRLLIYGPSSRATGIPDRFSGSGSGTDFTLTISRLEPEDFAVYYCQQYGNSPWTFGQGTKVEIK', 260);

Next:
Kindly note the recorded binding ratio at 3.7 nM vs NIH3T3 for H2M12395N (antibody, V domains shown, also called H2aM12395N) VH: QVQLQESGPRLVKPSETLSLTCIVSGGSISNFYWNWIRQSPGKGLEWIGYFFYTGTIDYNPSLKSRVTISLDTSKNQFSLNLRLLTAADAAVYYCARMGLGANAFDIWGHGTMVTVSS VL: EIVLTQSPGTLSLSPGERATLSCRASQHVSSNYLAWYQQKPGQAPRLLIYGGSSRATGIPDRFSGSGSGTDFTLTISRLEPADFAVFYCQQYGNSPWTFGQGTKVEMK , which is 52
